Molecular target: SAGA complex (Spt7-TAP purified) (Saccharomyces cerevisiae, UniProt P35177;P38915;P38811;P50875;P06844;Q12060;P38129;P53040;Q05027;Q12030;Q03761;Q03 …)
Experiment: fluorescence polarization
RESULT TYPE: Kd (nM)
The reply should be a number in nM, with the unit left off.

So for 75-mer ssDNA, HIS4 promoter (ssDNA) DNA: GCAGGAGGACGTAGGGTAGGACTATGAACAGTAGTATACTGTGTATATAATAGATATGGAACGTTATATTCACCT , the logged Kd turned out to be 15
